- Tested on: MCF7
- protocol_text: Antiproliferative activity against human MCF7 cells assessed as reduction in cell proliferation incubated for 48 hrs by MTT assay
- Type: functional, cell-based
- cond: MCF7, 48 h
quantity_measured: pIC50
Would you please state pIC50, meaning minus log10 of the concentration in mol/L, as a bare number?

Form: Entry = CCO/N=C1/C(=O)N(CCCOC2O[C@@H]3O[C@@]4(C)CC[C@H]5[C@H](C)CC[C@@H]([C@H]2C)[C@@]35OO4)c2ccc(F)cc21 (stereo partly specified) | System = MCF7 | pIC50 = ____
4.68

###

- protocol_text: Selectivity index, ratio of IC50 for antiproliferative activity against human MCF-10A cells to IC50 for antiproliferative activity against human MCF7 cells by MTT assay
- Type: toxicity, cell-based
- cond: MCF-10A cells versus MCF7 cells, read-out: Selectivity Index
quantity_measured: selectivity ratio

Recorded selectivity ratio for CCO/N=C1/C(=O)N(CCCOC2O[C@@H]3O[C@@]4(C)CC[C@H]5[C@H](C)CC[C@@H]([C@H]2C)[C@@]35OO4)c2ccc(F)cc21 (stereo partly specified) , please?
> 1.3
